- Test protocol: E. coli DRC41 culture turbidity changes, primary screen, E. coli filamentation inducer project, strain DRC41, OD650, 48 h (AID 1152);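 further: E. coli MC1000 strain DRC41 lacking acrAB efflux pump and sulA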
- Assay setup: E. coli DRC41 (acrAB sulA), higher = more signal, called active from +8 up or from −8 down
Calls of active or inactive are those of the source.
Recorded z-score, one value per entry.

These solved cases illustrate the format of a correct answer.
- Compound: "CC(c1ccccc1)C(O)C1C=CC2C(=O)N(c3ccccc3)C(=O)C2N1Nc1ccc([N+](=O)[O-])cc1 (centres undefined)"
  Reported metric: "z-score"
  Recorded result: "0.179 (inactive)"
- Compound: "C=CCC(OC(C)=O)[C@@H]1[C@@H](N(Cc2ccc(-c3ccccc3)cc2)C(=O)Cc2ccc(F)cc2)c2cc(OCCCO)ccc2N1C(=O)Cc1ccc(OC)cc1 (some centres undefined)"
  Reported metric: "z-score"
  Recorded result: "0.246 (inactive)"
- Compound: "C=CCC(OC(C)=O)[C@@H]1[C@@H](N(Cc2cc3ccccc3o2)C(=O)Cc2ccc(F)cc2)c2cc(OCCCO)ccc2N1C(=O)c1ccc2ccccc2c1 (some centres undefined)"
  Reported metric: "z-score"
  Recorded result: "-0.959 (inactive)"

Consider the record given below.
# input Specify measured z-score for COC(=O)CCCCCCC(=O)Nc1ccc(NC(=O)CCCC[P+](c2ccccc2)(c2ccccc2)c2ccccc2)cc1 .
# output -12.4 (active)

----------
- Study target: Luciferin 4-monooxygenase (Photinus pyralis)
- Test protocol: firefly luciferase enzyme inhibitors, primary screen, biochemical, luminescence, purified enzyme, 2006 set (AID 1141);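 further: cell-free assay with purified firefly luciferase at 100 ng per well in PBS; test concentration not given here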
- Assay setup: SteadyGlo luminescence, 30 min, called active from +8 up or from −8 down
Activity calls are given as the source filed them.
Use one of these outcomes when replying: true (active), false (inactive)

- Molecule: "CCOC(=O)c1ccc(NC(=O)O[C@H]2[C@H](OC(=O)Nc3ccc4c(c3)OCO4)[C@H](OC(=O)Nc3ccc4c(c3)OCO4)[C@@H](OC)O[C@@H]2CO)cc1"
  Class assignment: "true"
- Molecule: "C=CCC(OC(C)=O)[C@@H]1[C@@H](N(Cc2cccc3ccccc23)C(=O)c2cccc3ccccc23)c2cc(OCCCO)ccc2N1C(=O)c1ccc(-c2ccccc2)cc1 (stereo partly specified)"
  Class assignment: "false"
- Molecule: "CCOC(=O)C[C@H]1[C@H](OC(=O)c2ccccc2-c2ccccc2)[C@@H](NC(=O)c2ccc(-c3ccccc3)cc2)c2cc(OCCCO)ccc2N1C(=O)c1ccc2ccccc2n1"
  Class assignment: "false"
- Molecule: "O=C1C2C=CC(C(O)c3ccc(F)cc3)N(n3cnnc3)C2C(=O)N1Cc1ccccc1 (stereo unspecified)"
  Class assignment: "false"
- Molecule: "COC(=O)c1c2oc(c1C(=O)OC)C(=O)N(C)Cc1cn(nn1)C[C@H](Cc1ccccc1)NC(=O)N[C@H](CO)CC2"
  Class assignment: "false"

# input Assay result, entry COC(=O)[C@@]1(Cc2ccc(OC)cc2)[C@H]2c3cc(C(=O)N(C)C)n(Cc4ccc(Cl)c(C(F)(F)F)c4)c3C[C@H]2CN1C(=O)c1ccccc1 — outcome?
# output false

----------
- Test protocol: inhibitors of hydroxyurea-induced Chk1 phosphorylation, primary screen, imaging, HeLa, phospho-Chk1 nuclear intensity (AID 1187); further: test concentration not given here
- Assay setup: hydroxyurea-induced phospho-Chk1 immunofluorescence imaging, higher = more signal
Classification field. Basis: z-score. Definitions: c1 (below -0.3), c2 (-0.3 to below 0.1), c3 (0.1 or more)

Answered cases to consult:
- Molecule: "Cn1cccc1C(O)C1C=CC2C(=O)NC(=O)C2N1Nc1ccc(Cl)cc1Cl (centres undefined)"
  Class assignment: "c3"
- Molecule: "CC(=O)NCCCC[C@@H]1NC(=O)[C@@H]2C[C@H](C(=O)NCCCC[N+](C)(C)C)[C@H](c3ccc(O)cc3)N2C1=O"
  Class assignment: "c1"
- Molecule: "COCCOC(=O)N1C(=O)[C@@]2(c3cc(C#CCCO)ccc31)[C@H](C(=O)Nc1nc3ccccc3s1)[C@H]1C(=O)O[C@H](c3ccccc3)[C@H](c3ccccc3)N1[C@@H]2c1ccccc1OCCO"
  Class assignment: "c3"

# input Class (by measured z-score) for CN1C(=O)C2C=CC(C(O)COCc3ccccc3)N(N(c3ccccc3)c3ccccc3)C2C1=O (centres undefined)
# output c1

# input Band for the recorded z-score of CN1C(=O)C2C=CC(C(O)c3cccc(O)c3)N(Nc3ccccc3)C2C1=O (centres undefined) ?
# output c3

# input Band assignment needed for Cc1ccccc1C(O)C1C=CC2C(=O)N(C)C(=O)C2N1N(c1ccccc1)c1ccccc1 (centres undefined) please.
# output c2

# input Tag the class for CCOC(=O)C1=CC[C@@H](c2ccc(OCc3ccccc3)c(OC)c2)N(S(=O)(=O)c2ccc(C)cc2)[C@H]1c1ccc(SC)cc1
# output c1

# input Hi there! Could you help me figure out the category for COCCOC(=O)N1C(=O)[C@@]2(c3cc(C#CC4=CCCCC4)ccc31)[C@H](C(N)=O)[C@H]1C(=O)O[C@H](c3ccccc3)[C@H](c3ccccc3)N1[C@@H]2c1ccccc1OCCO please?
# output c1

# input Textbook exercise: identify the category of the molecule given here, COCCOC(=O)N1C(=O)[C@@]2(c3cc(C#CCNC(N)=O)ccc31)[C@H](C(=O)N1CCc3cc(OC)c(OC)cc3C1)[C@H]1C(=O)O[C@H](c3ccccc3)[C@H](c3ccccc3)N1[C@@H]2c1ccccc1OCCO , according to its measured value.
# output c3

# input Consider COc1ccc([Si](C)(C)[C@H]2[C@H](CCn3cc([C@H](O)c4ccccc4)nn3)O[C@@]3(C(=O)N(Cc4ccc(N5C(=O)c6cccc7cccc5c67)cc4)c4ccccc43)[C@@H]2C)cc1 . To which z-score class does it belong?
# output c2

# input Category of [N-]=[N+]=Nc1ccccc1[C@H]1OC(c2ccc(OCCCO)cc2)=N[C@@]1(Cc1ccccc1)C(=O)N1CCCCC1 :
# output c1

# input Which category does the recorded z-score put Cc1ccc(S[C@]2(C(=O)NCC(F)(F)F)CC(=O)N(Cc3ccccc3C(F)(F)F)[C@@H]2c2ccc(CO)cc2I)cc1 in?
# output c3
